Provenance of the data: PubChem BioAssay (NCI)

Consider the following molecules and their measured growth inhibition readings.
- experiment: NCI Yeast Anticancer Drug Screen. Data for the rad50 strain (AID 155);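 further: 0% = growth of vehicle-only cultures of the same strain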
- assayConditions: S. cerevisiae rad50 strain growth inhibition; at 50.0 µM; stronger effect = higher value
The panel holds about 79,000 compounds, 15% with a hit somewhere; the sample as a whole holds those more often.
Your answer should be a plain number; it is taken to be in %.

1) O=C1CC(O)C=C1Nc1ccc(Cl)cc1 (stereo not drawn) | 98.8
2) CN(C)/N=N/c1nc(Cc2ccccc2)[nH]c1C(N)=O | 98.5
3) O=[N+]([O-])/C=C/c1c[nH]c2c1ccc1ccccc12 | 84.4
4) CCC(c1ccc(OC)cc1)C(O)(CC)c1ccc(OC)cc1 (stereo not drawn) | 99
5) N#CC(C(=O)C(=O)Nc1cccc(C(F)(F)F)c1)c1ccccc1 (stereo not drawn) | -23.1

Memo: O=c1c(Cc2c[nH]c3ccccc23)coc2ccccc12 , reported growth inhibition: 24.2

Field growth inhibition (entry CC1C(O)Oc2cc3c(cc2C1c1ccccc1O)OCO3 (stereo not drawn) ) reads 61.8

Reported growth inhibition ( CCC(CC)C(c1ccc(O)cc1)c1ccc(O)cc1 ) = 99.5

So for O=C(O)C(Cc1cc(I)c(O)c(I)c1)c1ccccc1 (stereo not drawn) , the logged growth inhibition turned out to be 60.1

Form: molecule = CCN(CCO)CC1OC(OC)C2OC(C)(C)OC12 (stereo not drawn) ; growth inhibition = 10

Item: CCN(CC)CCCC(C)Nc1cc(F)cc2cccnc12 (stereo not drawn) | growth inhibition: 93.2

Lab note: measured growth inhibition of CN1C/C(=C\c2ccccc2)C(=O)C(c2ccccc2)C1 (stereo not drawn) was 1.9

Per the records, this molecule ( O=[N+]([O-])c1ccc(-c2cccc(Cl)c2)c([N+](=O)[O-])c1 ) has growth inhibition equal to 99.3

In plain terms, C/C(=N/NC(N)=S)C(CN(C)C)C(C1=C(O)c2ccccc2OC1)c1ccccc1 (stereo not drawn) has a documented growth inhibition of 68

So, Cc1cccc(Cl)c1NC(=O)/C=C/c1ccccc1 ? Its growth inhibition was -22.1

molecule CCC[CH2][Sn]([S][Sn]([CH2]CCC)([c]1ccccc1)[c]1ccccc1)([c]1ccccc1)[c]1ccccc1 , growth inhibition observed: 99.3

Record summary for OC(C(=Nc1ccccc1)c1ccccc1)c1ccccc1 (stereo not drawn) : reported growth inhibition = 98.7

CN(Cc1cc(C(C)(C)C)cc(Br)c1O)Cc1cc(C(C)(C)C)cc(Br)c1O yielded growth inhibition of 72

// field: growth inhibition; key: CCOC(=O)C(/C=N\C(=S)Nc1ccc(Cl)c(Cl)c1)=C(/O)c1ccccc1 ; value = 83.3

The recorded growth inhibition for entry [O-]c1c(-c2cccc3ccccc23)sc(-c2cccc3ccccc23)[n+]1-c1ccccc1 equals 70.7
